CHIC18 pH = 7.4 values for the compounds below.
Assay: Fast gradient RP-HPLC on C18 column (CHI lipophilicity)
Format: physicochemical
Conditions: C18 column, pH 7.4

[
  {
    "test.smiles": "O=C1c2ccccc2S(=O)(=O)N1CCCCCCN1CCN(c2ccc(Cl)c(Cl)c2)CC1",
    "CHIC18 pH = 7.4": 119.04
  },
  {
    "test.smiles": "O=C1c2ccccc2S(=O)(=O)N1CCCCCCN1CCN(c2ccc(Cl)cc2)CC1",
    "CHIC18 pH = 7.4": 106.56
  },
  {
    "test.smiles": "COc1ccccc1N1CCN(Cc2ccc(CN3C(=O)c4ccccc4S3(=O)=O)cc2)CC1",
    "CHIC18 pH = 7.4": 100.20
  },
  {
    "test.smiles": "COc1ccccc1N1CCN(CCCCCCN2C(=O)c3ccccc3S2(=O)=O)CC1",
    "CHIC18 pH = 7.4": 84.12
  },
  {
    "test.smiles": "COc1ccccc1N1CCN(CCCCCN2C(=O)c3ccccc3S2(=O)=O)CC1",
    "CHIC18 pH = 7.4": 79.45
  },
  {
    "test.smiles": "O=C1c2ccccc2S(=O)(=O)N1CCCCCCN1CCN(c2nsc3ccccc23)CC1",
    "CHIC18 pH = 7.4": 102.90
  },
  {
    "test.smiles": "O=C1c2ccccc2S(=O)(=O)N1CCCCCN1CCN(c2ccccn2)CC1",
    "CHIC18 pH = 7.4": 76.74
  },
  {
    "test.smiles": "O=C1c2ccccc2S(=O)(=O)N1CCCCCN1CCN(c2cccc3ccccc23)CC1",
    "CHIC18 pH = 7.4": 104.83
  }
]
